Overview of reported flash point across a group of compounds:
Supply the numeric figure in °C, leaving out any unit text.

Solved cases (10 shown):
Sc1ccccc1    51
CCC(C)CS (configuration not stated)    19
C/C=C\CCC [cis-2-hexene]    -25
CCC(=O)OC1CCCCC1 [cyclohexylpropanoate]    68
CCCCOC=O [butylformate]    18
CCCCCCCCCC#N    92
CCCc1ccc(OC)cc1    82
C1CCC2OC2C1 (configuration not stated) [cyclohexeneoxide]    24
CCC(C)CO (configuration not stated)    43
CCCC(C)CCC    5

Q. Sample CCCCCC(=O)OC(=O)CCCCC [hexanoicanhydride] — what was its flash point?
A. 113

Q. For the compound CCCCCC(C)C(C)C (configuration not stated) , what flash point is on record?
A. 36

Q. Given the entry `COC(C)OC` , report its measured flash point.
A. -17

Q. Dear colleague, I am looking for the recorded flash point of the following compound: `Brc1ccccc1`
A. 51

Q. Can you look up the measured flash point of `C=CC(CC)CC` for me?
A. -17

Q. For the compound shown here, C=CC(=O)OCCC [propylacrylate] , give the reported flash point.
A. 24

Q. Which value of flash point has been reported for CCCC(C)I (configuration not stated) in the records?
A. 45

Q. # input compound: `NC1CC1` ; wanted: its flash point
A. -25

Q. Which measured flash point value corresponds to `CCCCOC` ?
A. -10

Q. # lookup: flash point of `COc1cccc(C)c1`
A. 52

Q. Which measured flash point value corresponds to C=CC(CC)CCC (configuration not stated) ?
A. 1

Q. Which value of flash point has been reported for `CC1(C)CC(=O)CC(C)(C)C1` in the records?
A. 73

Q. Entry under review: `CCCC#CCCC` . Reported flash point?
A. 18

Q. // query flash point value for entry CC(Cl)CCl (configuration not stated)
A. 13

Q. # get_value(readout='flash point', item= CCSSCC [diethyldisulfide] )
A. 39

Q. Which measured flash point value corresponds to `Fc1ccccc1` ?
A. -15

Q. Would you mind telling me what flash point value was observed for `CCC(C)(C(C)C)C(C)C` ?
A. 31
